I'd appreciate it if you could supply Peak IIa [nM], Ab 100 nM values for the items below.
- MEASURED_TARGET: Relipidated TF (Tissue Factor) (UniProt P13726 33-295, limits assumed)
- TEST: cell-based or functional assay
Give bare numbers, in nM.

These solved cases illustrate the format of a correct answer.
BINDER	Peak IIa [nM], Ab 100 nM, nM
25A (antibody, human IgG1, V domains shown) VH: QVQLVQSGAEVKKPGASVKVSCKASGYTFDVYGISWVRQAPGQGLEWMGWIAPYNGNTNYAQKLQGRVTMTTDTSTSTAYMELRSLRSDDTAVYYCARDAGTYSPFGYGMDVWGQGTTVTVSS VL: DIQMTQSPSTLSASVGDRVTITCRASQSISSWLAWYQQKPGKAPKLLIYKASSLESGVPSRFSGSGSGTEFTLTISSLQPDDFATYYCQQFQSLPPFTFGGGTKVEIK	317
TF-011 (antibody, V domains shown) VH: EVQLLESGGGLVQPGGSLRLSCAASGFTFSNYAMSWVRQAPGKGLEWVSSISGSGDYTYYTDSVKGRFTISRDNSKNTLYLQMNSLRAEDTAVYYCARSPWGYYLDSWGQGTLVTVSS VL: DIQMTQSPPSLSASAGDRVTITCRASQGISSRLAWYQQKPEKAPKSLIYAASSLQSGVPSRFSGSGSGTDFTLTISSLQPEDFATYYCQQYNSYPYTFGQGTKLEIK	30
39A (antibody, human IgG1, V domains shown) VH: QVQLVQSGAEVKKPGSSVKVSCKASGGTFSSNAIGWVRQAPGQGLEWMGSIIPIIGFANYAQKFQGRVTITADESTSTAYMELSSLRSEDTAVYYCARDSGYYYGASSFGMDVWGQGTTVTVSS VL: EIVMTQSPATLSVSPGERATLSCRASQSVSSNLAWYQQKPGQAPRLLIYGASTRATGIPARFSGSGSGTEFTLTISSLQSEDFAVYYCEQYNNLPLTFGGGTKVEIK	29

Inquiry: Dear colleague, I am looking for the recorded Peak IIa [nM], Ab 100 nM of the following binder: 5G9 (humanized TF8-5G9, CNTO 860) (antibody, V domains shown) VH: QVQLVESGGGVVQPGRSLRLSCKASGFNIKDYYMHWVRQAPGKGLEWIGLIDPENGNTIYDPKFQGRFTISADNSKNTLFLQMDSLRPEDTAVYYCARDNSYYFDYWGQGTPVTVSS VL: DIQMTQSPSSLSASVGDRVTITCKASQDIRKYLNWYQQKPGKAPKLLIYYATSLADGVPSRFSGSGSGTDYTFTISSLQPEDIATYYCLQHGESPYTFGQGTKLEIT
Reply text: 27
